All figures here come from patent US20250339569A1.

assay: Pharmacokinetic characterization in healthy dogs; format: in vivo, beagle dogs; settings: male, beagle, urine and plasma, iv; dog, i.v. 0.8 mg/kg; read-out: estimated renal clearance
readout type: CL renal (mL/day/kg)
Please state the figure in mL/day/kg; there is no need to write the unit.

Enquiry: Identify measured CL renal corresponding to CC(C)C[C@@H]1NC(=O)[C@H](Cc2cccc(NC(=O)CCCS(N)(=O)=O)c2)NC(=O)[C@H](CC(=O)O)NC(=O)[C@H]2CCCN2C(=O)[C@H](CCC(=O)O)NC(=O)[C@@H](NC(=O)[C@H](CCC(N)=O)NC(=O)CN2CCN(C(=O)CN3CCN(CC(=O)O)CCN(CC(=O)O)CCN(CC(=O)O)CC3)CC2)CSCc2cccc(c2)CSC[C@@H](C(N)=O)NC(=O)[C@H](CO)NC(=O)[C@H](Cc2c[nH]c3ccccc23)NC(=O)[C@H]([C@@H](C)O)NC1=O [DPI-4452]
Return: 16.4
